The reported numbers originate from patent US8247211B2.

- Tested on: Enterococcus sp.
- Test Details: In vitro antibacterial evaluation: minimum inhibitory concentration (MIC), broth dilution method
- Format: cell-based
- Condition Info: Enterococcus faecalis (ATCC 29212); 18 hours at 35° C.

Compound	Experimental System	Bound Operator	MIC Enterococcus faecalis (ATCC 29212), µg/mL
CC(c1ccccc1)C1NC(=O)CNC(=O)C(CO)NC(=O)C(C(O)C2CNC(=N)N2C2OC(CO)C(O)C(O)C2O)NC(=O)C(C(O)C2CNC(=N)N2)NC(=O)C(Cc2ccc(OC3OC(CO)C(OC4OC(COCc5cccs5)C(O)C(O)C4O)C(O)C3O)cc2)NC1=O (stereo not shown)	Enterococcus sp.	=	32
CC(C1CCCCC1)C1NC(=O)CNC(=O)C(CO)NC(=O)C(C(O)C2CNC(=N)N2C2OC(CO)C(O)C(O)C2O)NC(=O)C(C(O)C2CNC(=N)N2)NC(=O)C(Cc2ccc(OC3OC(CO)C(OC4OC5COC(c6ccccc6)OC5C(O)C4O)C(O)C3O)cc2)NC1=O (stereo not shown)	Enterococcus sp.	=	1
COc1ccc2cc(COCC3OC(OC4C(CO)OC(Oc5ccc(CC6NC(=O)C(C(C)c7ccccc7)NC(=O)CNC(=O)C(CO)NC(=O)C(CC7CNC(=N)N7C7OC(CO)C(O)C(O)C7O)NC(=O)C(CC7CNC(=N)N7)NC6=O)cc5)C(O)C4O)C(O)C(O)C3O)ccc2c1 (stereo not shown)	Enterococcus sp.	=	32
CC(C)=CCCC(C)=CCCC(C)=CCOc1cccc(C2OCC3OC(OC4C(CO)OC(Oc5ccc(CC6NC(=O)C(C(C)c7ccccc7)NC(=O)CNC(=O)C(CO)NC(=O)C(C(O)C7CNC(=N)N7C7OC(CO)C(O)C(O)C7O)NC(=O)C(C(O)C7CNC(=N)N7)NC6=O)cc5)C(O)C4O)C(O)C(O)C3O2)c1 (stereo not shown)	Enterococcus sp.	>	64

====

- Test system: Staphylococcus sp.
- Test Details: In vitro antibacterial evaluation: minimum inhibitory concentration (MIC), broth dilution method
- Format: cell-based
- Condition Info: strain ATCC 29213; broth dilution, 18 hours at 35° C.
- Source text: […]
Reported MIC Staphylococcus aureus (ATCC 29213) values for a set of compounds
Measurement Name: MIC Staphylococcus aureus (ATCC 29213) (µg/mL)

Compound	Measurement Name	Readout Units	Bound Operator	Measured
CSc1ccc(C2OCC3OC(OC4C(CO)OC(Oc5ccc(CC6NC(=O)C(C(C)c7ccccc7)NC(=O)CNC(=O)C(CO)NC(=O)C(C(O)C7CNC(=N)N7C7OC(CO)C(O)C(O)C7O)NC(=O)C(C(O)C7CNC(=N)N7)NC6=O)cc5)C(O)C4O)C(O)C(O)C3O2)cc1 (centres unmarked)	MIC Staphylococcus aureus (ATCC 29213)	µg/mL	=	2
COc1cc(C2OCC3OC(OC4C(CO)OC(Oc5ccc(CC6NC(=O)C(C(C)c7ccccc7)NC(=O)CNC(=O)C(CO)NC(=O)C(C(O)C7CNC(=N)N7C7OC(CO)C(O)C(O)C7O)NC(=O)C(C(O)C7CNC(=N)N7)NC6=O)cc5)C(O)C4O)C(O)C(O)C3O2)cc([N+](=O)[O-])c1O (centres unmarked)	MIC Staphylococcus aureus (ATCC 29213)	µg/mL	=	32
CC(c1ccccc1)C1NC(=O)CNC(=O)C(CO)NC(=O)C(C(O)C2CNC(=N)N2C2OC(CO)C(O)C(O)C2O)NC(=O)C(C(O)C2CNC(=N)N2)NC(=O)C(Cc2ccc(OC3OC(CO)C(OC4OC5COC(CC67CC8CC(CC(C8)C6)C7)OC5C(O)C4O)C(O)C3O)cc2)NC1=O (centres unmarked)	MIC Staphylococcus aureus (ATCC 29213)	µg/mL	=	4
CC(c1ccccc1)C1NC(=O)CNC(=O)C(CO)NC(=O)C(C(O)C2CNC(=N)N2C2OC(CO)C(O)C(O)C2O)NC(=O)C(C(O)C2CNC(=N)N2)NC(=O)C(Cc2ccc(OC3OC(CO)C(OC4OC5COC(CC(C)(C)C)OC5C(O)C4O)C(O)C3O)cc2)NC1=O (centres unmarked)	MIC Staphylococcus aureus (ATCC 29213)	µg/mL	=	1
CC(c1ccccc1)C1NC(=O)CNC(=O)C(CO)NC(=O)C(C(O)C2CNC(=N)N2C2OC(CO)C(O)C(O)C2O)NC(=O)C(C(O)C2CNC(=N)N2)NC(=O)C(Cc2ccc(OC3OC(CO)C(OC4OC(CO)C(O)C5OC(CC67CC8CC(CC(C8)C6)C7)OC45)C(O)C3O)cc2)NC1=O (centres unmarked)	MIC Staphylococcus aureus (ATCC 29213)	µg/mL	=	2
CC(c1ccccc1)C1NC(=O)CNC(=O)C(CO)NC(=O)C(C(O)C2CNC(=N)N2C2OC(CO)C(O)C(O)C2O)NC(=O)C(C(O)C2CNC(=N)N2)NC(=O)C(Cc2ccc(OC3OC(CO)C(OC4OC5COC(c6ccc(C(=O)O)cc6)OC5C(O)C4O)C(O)C3O)cc2)NC1=O (centres unmarked)	MIC Staphylococcus aureus (ATCC 29213)	µg/mL	>	64
CC(c1ccccc1)C1NC(=O)CNC(=O)C(CO)NC(=O)C(C(O)C2CNC(=N)N2C2OC(CO)C(O)C(O)C2O)NC(=O)C(C(O)C2CNC(=N)N2)NC(=O)C(Cc2ccc(OC3OC(CO)C(OC4OC5COC(C67CC8CC(CC(C8)C6)C7)OC5C(O)C4O)C(O)C3O)cc2)NC1=O (centres unmarked)	MIC Staphylococcus aureus (ATCC 29213)	µg/mL	=	2
Cc1ccc(Oc2ccc(C3OCC4OC(OC5C(CO)OC(Oc6ccc(CC7NC(=O)C(C(C)c8ccccc8)NC(=O)CNC(=O)C(CO)NC(=O)C(C(O)C8CNC(=N)N8C8OC(CO)C(O)C(O)C8O)NC(=O)C(C(O)C8CNC(=N)N8)NC7=O)cc6)C(O)C5O)C(O)C(O)C4O3)cc2)cc1 (centres unmarked)	MIC Staphylococcus aureus (ATCC 29213)	µg/mL	=	2
CC(c1ccccc1)C1NC(=O)CNC(=O)C(CO)NC(=O)C(C(O)C2CNC(=N)N2C2OC(CO)C(O)C(O)C2O)NC(=O)C(C(O)C2CNC(=N)N2)NC(=O)C(Cc2ccc(OC3OC(CO)C(OC4OC5COC(Cc6ccc(F)cc6)OC5C(O)C4O)C(O)C3O)cc2)NC1=O (centres unmarked)	MIC Staphylococcus aureus (ATCC 29213)	µg/mL	=	1
Cc1cc(C2OCC3OC(OC4C(CO)OC(Oc5ccc(CC6NC(=O)C(C(C)c7ccccc7)NC(=O)CNC(=O)C(CO)NC(=O)C(C(O)C7CNC(=N)N7C7OC(CO)C(O)C(O)C7O)NC(=O)C(C(O)C7CNC(=N)N7)NC6=O)cc5)C(O)C4O)C(O)C(O)C3O2)ccc1[N+](=O)[O-] (centres unmarked)	MIC Staphylococcus aureus (ATCC 29213)	µg/mL	=	8
CCCCOC(=O)CCC1OCC2OC(OC3C(CO)OC(Oc4ccc(CC5NC(=O)C(C(C)c6ccccc6)NC(=O)CNC(=O)C(CO)NC(=O)C(C(O)C6CNC(=N)N6C6OC(CO)C(O)C(O)C6O)NC(=O)C(C(O)C6CNC(=N)N6)NC5=O)cc4)C(O)C3O)C(O)C(O)C2O1 (centres unmarked)	MIC Staphylococcus aureus (ATCC 29213)	µg/mL	=	2
CC(c1ccccc1)C1NC(=O)CNC(=O)C(CO)NC(=O)C(C(O)C2CNC(=N)N2C2OC(CO)C(O)C(O)C2O)NC(=O)C(C(O)C2CNC(=N)N2)NC(=O)C(Cc2ccc(OC3OC(CO)C(OC4OC5COC(c6ccc(C(=O)c7ccccc7)cc6)OC5C(O)C4O)C(O)C3O)cc2)NC1=O (centres unmarked)	MIC Staphylococcus aureus (ATCC 29213)	µg/mL	=	1

====

- System: Enterococcus sp.
- Test Details: In vitro antibacterial evaluation: minimum inhibitory concentration (MIC), broth dilution method
- Assay type: cell-based
- Condition Info: broth dilution, inoculum 5×10^5 CFU/mL, 18 hours at 35° C.
Measurement Name: MIC Enterococcus faecium (GC 2243) (µg/mL)

Molecule	Readout Units	Measured
CC(c1ccccc1)C1NC(=O)CNC(=O)C(CO)NC(=O)C(C(O)C2CNC(=N)N2C2OC(CO)C(O)C(O)C2O)NC(=O)C(C(O)C2CNC(=N)N2)NC(=O)C(Cc2ccc(OC3OC(CO)C(OC4OC5COC6(CC7CCC6(C)C7(C)C)OC5C(O)C4O)C(O)C3O)cc2)NC1=O (centres unmarked)	µg/mL	1
CC(c1ccccc1)C1NC(=O)CNC(=O)C(CO)NC(=O)C(C(O)C2CNC(=N)N2C2OC(CO)C(O)C(O)C2O)NC(=O)C(C(O)C2CNC(=N)N2)NC(=O)C(Cc2ccc(OC3OC(CO)C(OC4OC(CO)C(O)C5OC(c6ccc(-c7ccsc7)cc6)OC45)C(O)C3O)cc2)NC1=O (centres unmarked) [Example 164a]	µg/mL	8
CC(c1ccccc1)C1NC(=O)CNC(=O)C(CO)NC(=O)C(C(O)C2CNC(=N)N2C2OC(CO)C(O)C(O)C2O)NC(=O)C(C(O)C2CNC(=N)N2)NC(=O)C(Cc2ccc(OC3OC(CO)C(OC4OC5COC(c6cc7c(cc6Cl)OCO7)OC5C(O)C4O)C(O)C3O)cc2)NC1=O (centres unmarked)	µg/mL	4
CCOc1cc(C2OCC3OC(OC4C(CO)OC(Oc5ccc(CC6NC(=O)C(C(C)c7ccccc7)NC(=O)CNC(=O)C(CO)NC(=O)C(C(O)C7CNC(=N)N7C7OC(CO)C(O)C(O)C7O)NC(=O)C(C(O)C7CNC(=N)N7)NC6=O)cc5)C(O)C4O)C(O)C(O)C3O2)ccc1[N+](=O)[O-] (centres unmarked)	µg/mL	32
CC(c1ccccc1)C1NC(=O)CNC(=O)C(CO)NC(=O)C(C(O)C2CNC(=N)N2C2OC(CO)C(O)C(O)C2O)NC(=O)C(C(O)C2CNC(=N)N2)NC(=O)C(Cc2ccc(OC3OC(CO)C(OC4OC5COC(c6ccc(C(=O)c7ccccc7)cc6)OC5C(O)C4O)C(O)C3O)cc2)NC1=O (centres unmarked)	µg/mL	2
